- tgt: human Serotonin, 5-Hydroxytryptamine Receptor 2A (5HT2A), HTR2A (gene 3356)
- assaySummary: NVS_GPCR_h5HT2A: NovaScreen (NVS) G Protein-Coupled Receptor Assay for human Serotonin, 5-Hydroxytryptamine Receptor 2A (5HT2A) (AID 2283249)
Inconclusive results are not listed. Activity calls are given as the source filed them. The calls were made as follows: active = hit-call score of the fitted dose curve at least 0.9, where 1 is the maximum; inconclusive = response in the unintended direction; inactive = score below 0.9.
API: response.call in Yes (active), No (inactive)

Example results:
CCOC(=O)[C@]1(c2ccccc2)Oc2ccccc2[C@@H]1N    Yes
CC(C)(C)C(O)(CCc1ccc(Cl)cc1)Cn1cncn1 (stereo not given)    No
COP(=S)(OC)SCN1C(=O)c2ccccc2C1=O    No
CCC[CH2][Sn]([Cl])([CH2]CCC)[CH2]CCC    Yes

Ask: // return assay outcome for O=[N+]([O-])C(Br)(CO)CO
Result: No
